# TGT: Human immunodeficiency virus type 1 reverse transcriptase (Human immunodeficiency virus 1, UniProt Q72547)
# PROCEDURE_TEXT: Inhibition of recombinant wild type p66/p51 HIV1 reverse transcriptase incubated for 40 mins by picogreen dye-based spectrofluorometric analysis
pIC50: −log10 of the molar value.

SMILES_NOTATION	pIC50
CCS(=O)(=O)N(c1ccnc(Nc2ccc(C#N)cc2)n1)c1c(F)cc(-c2ccc(C#N)cc2)cc1F	6.70
Cc1cnc(Nc2ccc(C#N)cc2)nc1Nc1c(F)cc(-c2ccc(C#N)cc2)cc1F	7.89
CCCN(c1ccnc(Nc2ccc(C#N)cc2)n1)c1c(F)cc(-c2ccc(C#N)cc2)cc1F	7.39

These measurements were taken from ChEMBL document CHEMBL4808181.
